Exercise: state measured amyloid nucleation score for each of the sequences provided.
assay: amyloid nucleation score (Sup35N fusion, yeast selection) (log enrichment); library NNK2; higher = more nucleation; inactive = no reads after selection;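 note: zero at mode of non-aggregating sequences after 7 days selection at 30°C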
Kindly provide the number alone.

Hello, please tell me recorded amyloid nucleation score for this one: "VPEFCVSSCNSVNLRASE"
1.78

Hello, please tell me recorded amyloid nucleation score for this one: "EFGYFYLAMKISTSRYKQNY"
1.41

Hello, please tell me recorded amyloid nucleation score for this one: "KSEKTHRIAMLNMSLVSYMR"
3.97

Hello, please tell me recorded amyloid nucleation score for this one: "TYLWSLGYVSFQL"
-0.206

Hello, please tell me recorded amyloid nucleation score for this one: "VACETRRRA"
4.95

Hello, please tell me recorded amyloid nucleation score for this one: "FTPIGIIMYSFFKRTFTFVT"
-1.06
